system: NCI-H460 lung; assay: NCI-60 one-dose screen, 48 h; conditions: 10 µM
This is part of a sample that, as a whole, favours compounds with a hit. Of some 83,000 tested, about 20% had one in any assay. The source made the active and inactive calls. Rule for the calls: active = growth percent below 10; inactive = the rest.
Your answer must be one of the following: TRUE = active, FALSE = inactive

Worked set:
O=C(CS)Nc1ccc2ccccc2c1	FALSE
COc1cc2cc(OC(C)=O)c3cc4c(cc3c2c(OC)c1OC)OCO4	FALSE
O=C(c1ccc(O)cc1)c1ccc(O)cc1	FALSE
CC1OC(Oc2c(-c3ccc(O)c(O)c3)oc3cc(O)cc(O)c3c2=O)C(O)C(O)C1O (stereo not drawn)	FALSE
O=C1Cc2cc(O)ccc2O1	FALSE

*Q* Give the logged outcome of this assay for the following molecule: COc1cc(/C=C/C(=O)c2ccccc2)cc(OC)c1OC
*A* FALSE

----------
Listed below: growth values for each entry.
tested on: T-47D breast; assay: NCI-60 one-dose screen, 48 h (100 = growth as untreated, 0 = no growth, -100 = all killed); conditions: 10 µM
Compounds without any hit were thinned out: in the full panel of roughly 83,000, 20% have a hit. Calls of active or inactive are those of the source. Rule for the calls: active = growth percent below 10; inactive = the rest.

See these solved cases before continuing.
COc1ccc(C)cc1OC	107% (inactive)
O=c1cc(-c2ccccc2)[nH]c2c1CCCC2	22.8% (inactive)
CC(C)(C)c1cc(O)c(C(C)(C)C)cc1O	95% (inactive)
Nc1ccccc1SC(CC(=O)c1ccccc1)c1c(Cl)cccc1Cl (stereo not drawn)	69.4% (inactive)
O=C(O)CCCc1ccccc1	101% (inactive)
CC(C)OC(C(=O)O)c1ccccc1 (stereo not drawn)	91.5% (inactive)

*Q* Could you share which growth value was measured for O=C(O)c1ccnc(Br)c1 ?
*A* 96.9% (inactive)

*Q* Could you share which growth value was measured for CCCCCC(C)(CC(=O)O)CC(=O)O ?
*A* 104% (inactive)

----------
Listed below: growth values for each entry.
test system: T-47D breast; experiment: NCI-60 one-dose screen, 48 h (100 = growth as untreated, 0 = no growth, -100 = all killed); details: 10 µM
This is part of a sample that, as a whole, favours compounds with a hit. Of some 83,000 tested, about 20% had one in any assay.
Express it in %; write the number only.

See these solved cases before continuing.
COc1ccccc1NC(=O)c1cc2cc(Br)ccc2cc1O	9.84
O=C(NCCNC(=O)c1ccc(Cl)cc1Cl)c1ccc(Cl)cc1Cl	99.3
N#CCCc1ccc(O)cc1	101
Oc1ccccc1O	95.2

*Q* Could you share which growth value was measured for COc1cc2cc(OC(C)=O)c3cc4c(cc3c2c(OC)c1OC)OCO4 ?
*A* 106

*Q* Could you share which growth value was measured for COc1ccc(C(=O)C(Br)C(Br)C(=O)O)cc1 (centres undefined) ?
*A* 106

*Q* Could you share which growth value was measured for NC(=O)NC(=O)c1ccc(Cl)cc1 ?
*A* 96.9

*Q* Could you share which growth value was measured for [O-][N+](=Nc1cccc(Cl)c1)c1cccc(Cl)c1 ?
*A* 30.2

*Q* Could you share which growth value was measured for CCCCOC(=O)c1ccc(C(C)C)cc1 ?
*A* 88.7

*Q* Could you share which growth value was measured for O=C(/C(=N/O)c1ccccc1)c1ccccc1 ?
*A* 90.2
